Molecular target: T1, human neuropeptide Y2 receptor (human, UniProt P49146 1-381)
T1 sequence (looked up): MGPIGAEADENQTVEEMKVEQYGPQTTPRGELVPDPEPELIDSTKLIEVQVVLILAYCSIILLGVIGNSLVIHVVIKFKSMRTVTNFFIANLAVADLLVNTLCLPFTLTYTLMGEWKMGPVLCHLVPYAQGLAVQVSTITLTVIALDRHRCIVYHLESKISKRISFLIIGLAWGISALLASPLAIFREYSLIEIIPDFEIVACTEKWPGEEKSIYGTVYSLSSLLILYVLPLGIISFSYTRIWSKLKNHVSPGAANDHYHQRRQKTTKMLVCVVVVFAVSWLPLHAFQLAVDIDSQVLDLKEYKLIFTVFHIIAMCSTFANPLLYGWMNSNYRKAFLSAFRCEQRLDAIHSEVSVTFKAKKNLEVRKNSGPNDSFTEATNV
Experiment: cell-based or functional assay
Starred links: 1 amine or outer side, 2 acyl side, 3 side chain; linkers in the order of their positions; H or OH if unused. Non-standard residues stand in square brackets, D forms with d. Groups on a side chain read outwards from the residue. No end group written: not given here. *: point of attachment. C18 diacid = O=C(O)CCCCCCCCCCCCCCCCC(=O)*; γGlu = O=C(O)[C@H](CCC(=O)[*:2])N[*:1]; AEEA = NCCOCCOCC(=O)O; Aib = CC(C)(N)C(=O)O
Binary call on EC50 CreLuc hNPY2R 0.5% hP with cut-off 20 nM: strictly below means true (1), and equality or higher means false (0).

{"BINDER": "YXEGTFTSDYSIXLEKQAQXAFVQWLIKGGPSSGASLRHYYNWLTRQRY (Aib at 2, 13, 20; K28 side chain: C20DA-gGlu-gGlu-gGlu-gGlu-gGlu-OEG-OEG; C-terminal NH2) [Compound 112]", "CLASS ASSIGNMENT": "true (1)"}
{"BINDER": "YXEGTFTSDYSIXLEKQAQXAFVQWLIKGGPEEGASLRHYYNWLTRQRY (Aib at 2, 13, 20; K28 side chain: C18DA-gGlu-gGlu-gGlu-gGlu-gGlu-AHX; C-terminal NH2) [Compound 162]", "CLASS ASSIGNMENT": "false (0)"}
{"BINDER": "Y[Aib]EGTFTSDYSI[Aib]LEKQAQ[Aib]EFVQWLIKGGPSEGASLRHYYNWLTRQRY-NH2 (not fully specified (residue 28)) [Compound 164]", "CLASS ASSIGNMENT": "false (0)"}
{"BINDER": "Y[Aib]EGTFTSDYSI[Aib]LEKQAE[Aib]AFVEWLIK([AEEA-AEEA-γGlu-γGlu-γGlu-γGlu-C18 diacid])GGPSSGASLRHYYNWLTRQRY-NH2 [Compound 150]", "CLASS ASSIGNMENT": "true (1)"}
{"BINDER": "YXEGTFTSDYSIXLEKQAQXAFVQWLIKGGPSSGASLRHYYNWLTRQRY (Aib at 2, 13, 20; K28 side chain: C18DA-gGlu-gGlu-gGlu-gGlu-gGlu-OEG-OEG; C-terminal NH2) [Compound 167]", "CLASS ASSIGNMENT": "true (1)"}
